All figures here come from patent US8362066B2.

Biological target: Aβ1-40 (Homo sapiens, UniProt P05067)
Construct: Both Aβ1-40 and Aβ1-42 were purchased from Anaspec
Sequence (P05067 672-711 limits assumed): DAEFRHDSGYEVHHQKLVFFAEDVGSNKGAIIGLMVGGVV
Assay: ThT fluorescence assay, inhibition of Aβ1-40 aggregation
pIC50: −log10 of the molar value.
Test Readout: pIC50

(1) Nc1ccc2[nH]cc(-c3c4ccccc4cc4c3[nH]c3ccc(N)cc34)c2c1
(2) COc1ccc(Nc2ccc(Nc3ccc(OC)cc3)cc2)cc1
Request: Quick one: lower pIC50, 1 or 2 ? Lab log: write the label of the selected item as the result.
Result: 1
(1: 5.49, 2: 6.27)

(A) N#Cc1ccc2[nH]cc(-c3c(O)c(O)cc4ccccc34)c2c1
(B) N#Cc1ccc2[nH]cc(-c3c[nH]c4ccc(O)cc34)c2c1
Request: When A and B are compared, which has the higher number for pIC50? Lab log: write the label of the selected item as the result.
Result: A

(a) O=C(O)c1cccc2c(-c3c(O)c(O)cc4ccccc34)c[nH]c12
(b) COc1ccc2[nH]cc(-c3c[nH]c4ccc(C#N)cc34)c2c1
(c) O=C(O)c1cccc2c(-c3c[nH]c4ccccc34)c[nH]c12
Request: Let's sort these by pIC50, smallest first. Go ahead? Kindly provide the labels arranged according to the requested ordering.
Result: c, b, a
(c: 4.46, b: 4.68, a: 4.99)
